Numbers sourced from patent US20250145684A1.

tested_target: T1, HLA-B*08:01 (human)
T1 construct: MHC monomer first loaded with a UV-sensitive peptide that is cleaved by UV light and exchanged for the test peptide
experiment: UV peptide exchange ELISA
property_name: peptide exchange yield

EVYLRMYQL [EVYLRMYQL (SEQ ID NO: 80)]	50 to 75%
LAVRHLSL [LAVRHLSL (SEQ ID NO: 220)]	20 to 50%
LPKLPVPPL [LPKLPVPPL (SEQ ID NO: 77)]	50 to 75%
HLTNRVLSL [HLTNRVLSL (SEQ ID NO: 44)]	50 to 75%
DIYEVAVSL [DIYEVAVSL (SEQ ID NO: 226)]	50 to 75%
RPIHHPLVL [RPIHHPLVL (SEQ ID NO: 86)]	20 to 50%
DQLLRHVM [DQLLRHVM (SEQ ID NO: 94)]	50 to 75%
QPNTHQLL [QPNTHQLL (SEQ ID NO: 210)]	20 to 50%
DVYFHHVL [DVYFHHVL (SEQ ID NO: 230)]	20 to 50%
YVIQRQSVL [YVIQRQSVL (SEQ ID NO: 176)]	20 to 50%
HIRIKHTF [HIRIKHTF (SEQ ID NO: 71)]	50 to 75%
DNHPRLVTL [DNHPRLVTL (SEQ ID NO: 218)]	50 to 75%
LPKGLKDWQA [LPKGLKDWQA (SEQ ID NO: 107)]	20 to 50%
VGPNGFKSL [VGPNGFKSL (SEQ ID NO: 117)]	20 to 50%
DLKKTRVL [DLKKTRVL (SEQ ID NO: 66)]	20 to 50%
DLISPRQPRL [DLISPRQPRL (SEQ ID NO: 186)]	20 to 50%
